# System Tested: C19orf48
# Protocol Description: pooled miR-30 sensor sort-seq; sequence = guide strand; also: reference of the scale not given here
# Measurement Context: shRNA
// sensor-assay potency score (higher = more potent) lookup, one value per entry
Quantity: sensor-assay potency score (higher = more potent)

1. CCACTTATCCACCTTCTCCTGG; -1.46
2. TGGAGCACCAGGCCAGGCGGTG; -1.89
3. TTGTGCACTGGGTTGGGTCCCA; -0.4
4. TAGGCCTGGTCACAATAGGGAA; -1.64
5. TTCTGGCCTGCTTCACCCCTGG; -0.772
6. TTGGGTCCCAGCATGAGCCTGG; -0.0945
7. ATAGGCCTGGTCACAATAGGGA; -0.793
8. TTATCCACCTTCTCCTGGGTGT; -0.455

---

# System Tested: SFT2D2
# Protocol Description: pooled miR-30 sensor sort-seq; sequence = guide strand
# Measurement Context: shRNA
// sensor-assay potency score (higher = more potent) lookup, one value per entry
Quantity: sensor-assay potency score (higher = more potent)

1) TGATAGTTGCAATCAAACGAGT; -0.692
2) AAGAGGTGTAGTCCCTTCCTGG; -1.12
3) TGCAAAACACAACAGCACCATG; -1.45
4) TCAAACATTCGCTTCAGCTGTT; 0.727
5) TTATCCTGGTACTCCAGCTTAA; -1.39
6) TTAATGAAGATGCCTCAACAAC; -1.49
7) ATCACAAGCAACACATTGCTGC; -0.583

---

# System Tested: POLH
# Protocol Description: pooled miR-30 sensor sort-seq; sequence = guide strand
# Measurement Context: shRNA
Would you please tag the item true when its sensor-assay potency score (higher = more potent) is 0.3 or above, and false when it is below?

1. ATAACTTCTTAGCATCATCTGC; false
2. TATCAATCTGAAGAGAATCGAG; false
3. TAGAAGCAGACTTTTCTGCTTA; false
4. TTTAGAGGATTCTTCTAGCTTC; true
5. TTACAGTTCTTGATGACAGTAA; true
6. TATTGTGTGAAATTCCAGCTGA; true
7. TACACGAATGCTCACAACCAGC; false

---

// sensor-assay potency score (higher = more potent) lookup, one value per entry
# System Tested: TNFRSF10A
# Protocol Description: pooled miR-30 sensor sort-seq; sequence = guide strand
# Measurement Context: shRNA
Quantity: sensor-assay potency score (higher = more potent)

1. TGTATTAACTCCTAACACCTAA; -0.808
2. TCTAAGTAGATGAACTTTCCAG; -0.118
3. TTCTTTGTGGACACACTCGATG; -0.86
4. TTGAAGGTCTTGTGGACCCGGA; 0.23
5. TCTTCTAAGTAGATGAACTTTC; -0.791
6. TTAACTCCTAACACCTAAGAGG; -0.905

---

# System Tested: MOGAT1
# Protocol Description: pooled miR-30 sensor sort-seq; sequence = guide strand
# Measurement Context: shRNA
Quantity: sensor-assay potency score (higher = more potent)

1) TATAGTTGTGACTTGGATCCAA; 0.757
2) TTCTGAACAGTTCTAATCCATG; -1.47
3) TTTAACAAATCCTTTCCGCTGG; -0.0523
4) TTGTACTGAAAAACTCCCCTGG; 0.595
5) TTACCATGTAGGACACACTTTT; -0.495
6) TTGATCCAGCTGGATCTCCTGC; -0.998
7) TTCTAATCCATGATCCTTCAGG; -0.32
